tested on: Mus musculus; assay: Evaluation of efficacy on systemic infections Escherichia coli HM-42, after oral administration in mice; format: functional
outcome.measure: ED50 (mg/kg)
Numbers only, in mg/kg.

Some compounds with known ED50 results, for comparison:
[[record]]
line_notation = "C[C@H]1[C@H](N)CN1c1nc2c(cc1F)c(=O)c(C(=O)O)cn2C1CC1"
study_target = "Mus musculus"
outcome_measure = "ED50"
result_units = "mg/kg"
result = 3.5

[[record]]
line_notation = "C[C@@H]1[C@@H](N(C)C)CN1c1c(F)cc2c(=O)c(C(=O)O)cn(C3CC3)c2c1F"
study_target = "Mus musculus"
outcome_measure = "ED50"
result_units = "mg/kg"
result = 3.1

[[record]]
line_notation = "CN[C@H]1CN(c2cc3c(cc2F)c(=O)c(C(=O)O)cn3C2CC2)[C@@H]1C"
study_target = "Mus musculus"
outcome_measure = "ED50"
result_units = "mg/kg"
result = 2

[[record]]
line_notation = "CN[C@H]1CN(c2c(F)cc3c(=O)c(C(=O)O)cn(C4CC4)c3c2F)[C@@H]1C"
study_target = "Mus musculus"
outcome_measure = "ED50"
result_units = "mg/kg"
result = 2.3


Now consider a different compound.
q: Can you share its ED50? I mean this compound: C[C@@H]1[C@@H](N(C)C)CN1c1cc2c(cc1F)c(=O)c(C(=O)O)cn2C1CC1
a: 4.5

###

test: Dissociation constant (pKa); assay type: physicochemical; details: read-out: pKa2
Provide the recorded pKa for the entries that follow.
Answers are plain numbers.

Recorded pKa, per entry:
[[record]]
line_notation = "CN(C)C1CN(c2c(F)cc3c(=O)c(C(=O)O)cn(C4CC4)c3c2F)C1"
result = 8.14

[[record]]
line_notation = "CC1(N)CN(c2c(F)cc3c(=O)c(C(=O)O)cn(C4CC4)c3c2F)C1"
result = 8.33

[[record]]
line_notation = "C[C@H]1[C@H](N)CN1c1nc2c(cc1F)c(=O)c(C(=O)O)cn2C1CC1"
result = 8.31

[[record]]
line_notation = "C[C@H]1[C@H](N)CN1c1c(F)cc2c(=O)c(C(=O)O)cn(C3CC3)c2c1Cl"
result = 8.47

[[record]]
line_notation = "CN(C)C1(C)CN(c2cc3c(cc2F)c(=O)c(C(=O)O)cn3C2CC2)C1"
result = 7.9

[[record]]
line_notation = "C[C@H]1[C@H](N)CN1c1c(F)cc2c(=O)c(C(=O)O)cn(C3CC3)c2c1F"
result = 8.35

[[record]]
line_notation = "CN[C@H]1CN(c2c(F)cc3c(=O)c(C(=O)O)cn(C4CC4)c3c2F)[C@@H]1C"
result = 8.5

[[record]]
line_notation = "CNC1(C)CN(c2cc3c(cc2F)c(=O)c(C(=O)O)cn3C2CC2)C1"
result = 8.65

[[record]]
line_notation = "C[C@@H]1[C@@H](N(C)C)CN1c1cc2c(cc1F)c(=O)c(C(=O)O)cn2C1CC1"
result = 7.9

[[record]]
line_notation = "CCNC1CN(c2c(F)cc3c(=O)c(C(=O)O)cn(C4CC4)c3c2F)C1"
result = 8.57


For the 6 compounds below, give their pKa values.
1. CC1(N)CN(c2cc3c(cc2F)c(=O)c(C(=O)O)cn3C2CC2)C1
2. CNC1(C)CN(c2c(F)cc3c(=O)c(C(=O)O)cn(C4CC4)c3c2F)C1
3. CN(C)C1CN(c2cc3c(cc2F)c(=O)c(C(=O)O)cn3C2CC2)C1
4. CC1(N)CN(c2c(F)cc3c(=O)c(C(=O)O)cn(C4CC4)c3c2Cl)C1
5. C[C@@H]1[C@@H](N(C)C)CN1c1c(F)cc2c(=O)c(C(=O)O)cn(C3CC3)c2c1F
6. NC1CN(c2c(F)cc3c(=O)c(C(=O)O)cn(C4CC4)c3c2F)C1

a:
[8.55, 8.58, 7.81, 8.45, 8.2, 8.2]
